- Target or system: recombinant full length HPK-1 enzyme (Homo sapiens (Human), UniProt Q92918)
- Sequence (Q92918 whole entry, species assumed): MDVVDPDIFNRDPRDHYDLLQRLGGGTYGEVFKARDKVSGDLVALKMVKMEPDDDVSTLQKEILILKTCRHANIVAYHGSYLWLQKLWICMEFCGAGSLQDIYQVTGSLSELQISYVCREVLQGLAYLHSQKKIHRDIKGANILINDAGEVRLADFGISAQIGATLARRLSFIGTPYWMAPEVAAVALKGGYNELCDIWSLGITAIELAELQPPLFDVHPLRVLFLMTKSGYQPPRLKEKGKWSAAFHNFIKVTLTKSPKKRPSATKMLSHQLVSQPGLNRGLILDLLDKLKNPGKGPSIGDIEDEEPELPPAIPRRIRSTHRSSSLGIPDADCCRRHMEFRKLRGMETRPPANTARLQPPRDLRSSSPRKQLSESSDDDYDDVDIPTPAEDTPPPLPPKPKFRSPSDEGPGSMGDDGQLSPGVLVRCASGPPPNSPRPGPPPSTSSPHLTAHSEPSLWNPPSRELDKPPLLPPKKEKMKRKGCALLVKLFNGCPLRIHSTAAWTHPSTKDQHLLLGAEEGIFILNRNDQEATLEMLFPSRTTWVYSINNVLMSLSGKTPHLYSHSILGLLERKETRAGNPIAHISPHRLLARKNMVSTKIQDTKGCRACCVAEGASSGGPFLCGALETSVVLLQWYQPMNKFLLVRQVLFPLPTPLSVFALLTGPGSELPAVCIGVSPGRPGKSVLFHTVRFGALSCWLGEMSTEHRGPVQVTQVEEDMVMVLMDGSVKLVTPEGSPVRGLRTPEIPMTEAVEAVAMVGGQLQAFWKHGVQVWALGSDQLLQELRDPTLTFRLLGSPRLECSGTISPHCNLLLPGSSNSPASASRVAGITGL
- Assay procedure: HPK-1 biochemical enzyme assay (ADP-Glo kinase inhibition)
- Study conditions: recombinant full length HPK-1 6.8 nM, 10 μM ATP, 12.5 μM MBP, 30 mins at 25° C.
pIC50: −log10 of the molar value.
Readout kind: pIC50

// pIC50 lookup, key: Cc1c(Nc2cc[nH]c(=O)c2C(=O)Nc2ccc(N3CCN(C4CC4)CC3)cc2)cnc2c1NCCO2 [Example 167] ≥ 8.00

// pIC50 lookup, key: Cc1c(Nc2cc[nH]c(=O)c2C(=O)Nc2ccc(N3CCN(C)CC3)c(C(=O)O)c2)cnc2c1NCCO2 [Example 215] 6.00 to 7.00

// pIC50 lookup, key: Cc1c(Nc2nc[nH]c(=O)c2C(=O)Nc2ccc(N3CCN(C(C)C)CC3)cc2)cnc2c1NCCO2 [Example 412] 7.00 to 8.00

// pIC50 lookup, key: Cc1c(Nc2cc[nH]c(=O)c2C(=O)Nc2ccc3c(c2)N(C)C(=O)CO3)cnc2c1NCCO2 [Example 239] 6.00 to 7.00
